measurement.notes: resazurin metabolic signal in HepG2 cells – cell-based, resazurin fluorescence, 24 h, PK04 Diversity Set, profiling panel (AID 1172); note: test concentration not given here
measurement.setup: HepG2 viability, higher = more signal
outcome.measure: z-score

// solved cases for z-score follow
1. O=S(=O)(NCCCO)c1ccc(Br)cc1 = 0.304
2. C=C(COC)/C(=C/C[C@H](OC(C)=O)c1ccccc1OCCO)c1cnc2ccccc2c1 = -0.192
3. Cc1ccc(N2C(=O)c3ccccc3[C@@H](C(=O)NCC(C)C)[C@@H]2c2ccc(CO)cc2)nc1 = -0.324
4. O=C(CS)NCCCCCNC(=O)[C@H]1C[C@H]2C(=O)N[C@@H](Cc3ccccc3)C(=O)N2[C@H]1c1cccc(OCCO)c1 = 0.219

Input COCCCNC(=O)[C@@]1(C)c2ccccc2C(=O)N(Cc2ccccc2)[C@H]1c1ccc(CO)cc1 . Output z-score: -0.0127

Input O=C(NCCN1CCOCC1)[C@@H]1c2ccccc2C(=O)N(Cc2cc(F)cc(C(F)(F)F)c2)[C@H]1c1ccc(CO)cc1 . Output z-score: -0.375

Input C=C(CCCC)C(=O)CC[C@H](OC(=O)c1ccccc1-c1ccccc1C(=O)O)c1ccc(CO)o1 . Output z-score: 0.985

Input CC(C)C(CO)N1C(=O)[C@@H]2[C@H]3C(=O)OCC=C[C@H]3OC23C=CCN(c2ccc4ccccc4c2)C(=O)[C@@H]13 (stereo partly drawn) . Output z-score: -0.128
